Study System: T1, Spy_(21-130) (UniProt P77754 44-153)
T1 construct: Spy chaperone, residues 21-130; source: E. coli BL21 (DE3), purified (Ni-NTA, cation exchange, SEC); not shown: His6, N-terminal, cleaved; SUMO, N-terminal, cleaved
T1 sequence (looked up): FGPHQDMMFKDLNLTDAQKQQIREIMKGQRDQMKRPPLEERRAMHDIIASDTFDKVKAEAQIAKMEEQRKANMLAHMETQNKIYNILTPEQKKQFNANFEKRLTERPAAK
Protocol Notes: BLI; Octet RED96; client biotinylated and loaded on streptavidin sensors; Spy or Spy variant in solution at 0.25, 0.5, 1, 1.5 and 2 μM; 40 mM HEPES, 150 mM NaCl, pH 7.5; Kd calculated as koff/kon
Condition Details: both partners purified
Measurement Label: Kd

Im7 H40W L53A I54A (natural protein, biotin (EZ-link NHS-biotin, 1:1 molar ratio of biotin to protein), Im7 (colicin E7 immunity protein) with H40W L53A I54A; Spy was made with an N-terminal His6-SUMO tag that was cleaved; also called Im7AAW; partially folded client; source: purified by a similar procedure to Spy) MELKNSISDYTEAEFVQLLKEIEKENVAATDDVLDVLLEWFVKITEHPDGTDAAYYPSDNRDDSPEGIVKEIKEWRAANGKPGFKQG = 2490 nM
